- protocol_summary: Pharmacokinetic study after oral dosing, rat
- Format: in vivo, SD Rat
- condition_summary: male, SD (Sprague-Dawley), rat, in vivo, po, 2 mg/kg, oral; solution in 20% kleptose in water; SD Rat male; 2 mg/kg; Fed; 10 mL/kg; read-out: C24 h
reported_property: concentration at 24 h (nM)
# unit: nM | format: bare number

Asked: What value of concentration at 24 h has been reported for the following molecule? COc1cc(C)c2[nH]ccc2c1CN1CCC2(C[C@H]1c1ccc(C(=O)O)cc1)CC(F)(F)C2
Given back: 210

====

- protocol_summary: Solubility in Simulated Fluids at 37° C.
- Assay type: physicochemical
- condition_summary: 37 °C, pH 7, water, thermodynamic from solid, Water, initial pH 7.00, 30 min, read-out: Solubility (mg/mL) 30 min
reported_property: solubility at 30 min (mg/mL)
# unit: mg/mL | format: bare number

Solved entries (count: 2):
>>> print(df.to_string())
                                   molecule  recorded_value
0  COc1cc(C)c2[nH]ccc2c1CN1CCC2(C[C@H]1c1ccc(C(=O)O)cc1)CC(F)(F)C2.Cl [Form D]            2.08
1  COc1cc(C)c2[nH]ccc2c1CN1CCC2(C[C@H]1c1ccc(C(=O)O)cc1)CC(F)(F)C2 [Form A]            0.21

Could you now look at the following molecule, please?
Asked: What value of solubility at 30 min has been reported for the following molecule? COc1cc(C)c2[nH]ccc2c1CN1CCC2(C[C@H]1c1ccc(C(=O)O)cc1)CC(F)(F)C2.Cc1ccc(S(=O)(=O)O)cc1 [Form B]
Given back: 0.48

====

- protocol_summary: Solubility in water and biorelevant buffers at 25° C.
- Format: physicochemical
- condition_summary: fassgf or other biorelevant, thermodynamic from solid; PBS-V1 + 2.0 FeSSIF-V2, pH 6.5; 25° C.; 24 h; read-out: Solubility (mg/mL) S
- Procedure: Purchase sodium taurocholate (NaTC) from supplier. Account for assay. Add amount corresponding to 3 mM to PBS V1. Stir until dissolved. Equilibrate 1 h at 25° C. or 37° C. before use. Dispose after 48 h. Purchase FaSSIF-V2 from supplier (biorelevant.com). Amount added to PBS-V1 according to Table 1. Stir until dissolved. Equilibrate 1 h at 25° C. or 37° C. before use. Dispose after 48 h. Purchase FeSSIF-V2 from supplier (biorelevant.com). Amount added to PBS-V1 according to Table 1. Stir until dissolved. […]
reported_property: solubility at 24 h
Report the figure along with its unit, number first.

In [3]: df
Out[3]:
                                   compound  recorded_value
0  COc1cc(C)c2[nH]ccc2c1CN1CCC2(C[C@H]1c1ccc(C(=O)O)cc1)CC(F)(F)C2.Cc1ccc(S(=O)(=O)O)cc1 [Form B]      0.31 mg/mL

Could you now look at the following compound, please?
Asked: What value of solubility at 24 h has been reported for the following compound? COc1cc(C)c2[nH]ccc2c1CN1CCC2(C[C@H]1c1ccc(C(=O)O)cc1)CC(F)(F)C2 [Form A]
Given back: 0.12 mg/mL

====

- protocol_summary: Solubility in water and biorelevant buffers at 25° C.
- Assay type: physicochemical
- condition_summary: fassgf or other biorelevant, thermodynamic from solid; PBS-V1 + 3 mM NaTC, pH 6.5; 25° C.; 24 h; read-out: Solubility (mg/mL) S
reported_property: solubility at 24 h (mg/mL)
# unit: mg/mL | format: bare number

Asked: What value of solubility at 24 h has been reported for the following compound? COc1cc(C)c2[nH]ccc2c1CN1CCC2(C[C@H]1c1ccc(C(=O)O)cc1)CC(F)(F)C2 [Form A]
Given back: 0.068

====

- protocol_summary: Pharmacokinetic study after oral dosing, dog
- condition_summary: in vivo, solution in 20% kleptose in water, Dog beagle male, 100 mg/kg, Fasted, 5 mL/kg, read-out: C24 h
reported_property: concentration at 24 h (µM)
# unit: µM | format: bare number

Asked: What value of concentration at 24 h has been reported for the following molecule? COc1cc(C)c2[nH]ccc2c1CN1CCC2(C[C@H]1c1ccc(C(=O)O)cc1)CC(F)(F)C2
Given back: 18.8

====

- protocol_summary: Pharmacokinetic study after oral dosing, rat
- Assay type: in vivo, SD Rat
- condition_summary: male, SD (Sprague-Dawley), rat, in vivo, po, 300 mg/kg, oral; suspension in 0.5% methocel + 0.1% tween 80 in water; SD Rat male; 300 mg/kg; particle size D50 = 101 μm; Fed; 5 mL/kg
reported_property: Cmax (µM)
# unit: µM | format: bare number

Asked: What value of Cmax has been reported for the following compound? COc1cc(C)c2[nH]ccc2c1CN1CCC2(C[C@H]1c1ccc(C(=O)O)cc1)CC(F)(F)C2 [Form A]
Given back: 80

====

- protocol_summary: Pharmacokinetic study after oral dosing, non-human primate
- condition_summary: cynomolgus monkey, in vivo, solution in 20% kleptose in water, Cyno male, 30 mg/kg, Fed, 5 mL/kg
reported_property: Cmax (µM)
# unit: µM | format: bare number

Asked: What value of Cmax has been reported for the following molecule? COc1cc(C)c2[nH]ccc2c1CN1CCC2(C[C@H]1c1ccc(C(=O)O)cc1)CC(F)(F)C2
Given back: 8.6

====

- protocol_summary: Pharmacokinetic study after oral dosing, rat
- Format: in vivo, SD Rat
- condition_summary: male, SD (Sprague-Dawley), rat, in vivo, po, 2 mg/kg; solution in 20% kleptose in water; SD Rat male; Fed; 10 mL/kg
reported_property: Cmax (µM)
# unit: µM | format: bare number

Asked: What value of Cmax has been reported for the following molecule? COc1cc(C)c2[nH]ccc2c1CN1CCC2(C[C@H]1c1ccc(C(=O)O)cc1)CC(F)(F)C2
Given back: 2.42

====

- protocol_summary: Solubility in Simulated Fluids at 37° C.
- Format: physicochemical
- condition_summary: 37 °C, fassif, thermodynamic from solid, FaSSIF, 24 h, read-out: Solubility (mg/mL) 24 h
reported_property: solubility at 24 h (mg/mL)
# unit: mg/mL | format: bare number

Asked: What value of solubility at 24 h has been reported for the following compound? COc1cc(C)c2[nH]ccc2c1CN1CCC2(C[C@H]1c1ccc(C(=O)O)cc1)CC(F)(F)C2 [Form A]
Given back: 0.18

====

- protocol_summary: Pharmacokinetic study after oral dosing, dog
- condition_summary: in vivo, solution in 20% kleptose in water, Dog beagle male, 2 mg/kg, Fasted, 5 mL/kg
reported_property: Cmax (µM)
# unit: µM | format: bare number

Asked: What value of Cmax has been reported for the following molecule? COc1cc(C)c2[nH]ccc2c1CN1CCC2(C[C@H]1c1ccc(C(=O)O)cc1)CC(F)(F)C2
Given back: 3.64

====

# solubility at 24 h annotations
- protocol_summary: Solubility in water and biorelevant buffers at 25° C.
- Format: physicochemical
- condition_summary: thermodynamic from solid; water; 25° C.; 24 h; read-out: Solubility (mg/mL) S
# unit: mg/mL | format: bare number

                                   compound  recorded_value
0  COc1cc(C)c2[nH]ccc2c1CN1CCC2(C[C@H]1c1ccc(C(=O)O)cc1)CC(F)(F)C2 [Form A]           0.052

Could you now look at the following compound, please?
Asked: What value of solubility at 24 h has been reported for the following compound? COc1cc(C)c2[nH]ccc2c1CN1CCC2(C[C@H]1c1ccc(C(=O)O)cc1)CC(F)(F)C2.Cc1ccc(S(=O)(=O)O)cc1 [Form B]
Given back: 0.39

====

- protocol_summary: Solubility in water and biorelevant buffers at 25° C.
- Assay type: physicochemical
- condition_summary: thermodynamic from solid; PBS-V1 + FeSSIF-V2, pH 6.5; 25° C.; 24 h; read-out: Solubility (mg/mL) S
# solubility at 24 h annotations
Report the figure along with its unit, number first.

Asked: What value of solubility at 24 h has been reported for the following molecule? COc1cc(C)c2[nH]ccc2c1CN1CCC2(C[C@H]1c1ccc(C(=O)O)cc1)CC(F)(F)C2 [Form A]
Given back: 0.094 mg/mL

Asked: What value of solubility at 24 h has been reported for the following molecule? COc1cc(C)c2[nH]ccc2c1CN1CCC2(C[C@H]1c1ccc(C(=O)O)cc1)CC(F)(F)C2.Cc1ccc(S(=O)(=O)O)cc1 [Form B]
Given back: 0.2 mg/mL

====

- protocol_summary: Solubility in Simulated Fluids at 37° C.
- Format: physicochemical
- condition_summary: 37 °C, fassgf or other biorelevant, thermodynamic from solid, FaSSGF, 24 h, read-out: Solubility (mg/mL) 24 h
reported_property: solubility at 24 h

Solved entries (count: 2):
>>> df
                                   molecule  recorded_value
0  COc1cc(C)c2[nH]ccc2c1CN1CCC2(C[C@H]1c1ccc(C(=O)O)cc1)CC(F)(F)C2.Cl [Form D]       > 2 mg/mL
1  COc1cc(C)c2[nH]ccc2c1CN1CCC2(C[C@H]1c1ccc(C(=O)O)cc1)CC(F)(F)C2 [Form A]       > 2 mg/mL

Could you now look at the following molecule, please?
Asked: What value of solubility at 24 h has been reported for the following molecule? COc1cc(C)c2[nH]ccc2c1CN1CCC2(C[C@H]1c1ccc(C(=O)O)cc1)CC(F)(F)C2.Cc1ccc(S(=O)(=O)O)cc1 [Form C]
Given back: 0.85 mg/mL
